Measured values drawn from patent US11149022B2 for this set.

target: UniProtKB P08173; test: mAChR M4 cell-based functional assay (calcium flux, antagonist mode); conditions: M4/Gqi5/CHO-K1 cells; concentration-dependent decrease of the EC80 acetylcholine response
pIC50: −log10 of the molar value.
Is pIC50 at least 6? Then criterion met. If not, criterion not met.

> print(dat)
                                   molecule     assigned.class
1  Cc1nn(C)cc1-c1ccc(NCC2CC3(CCN(Cc4ccccn4)CC3)C2)nn1 [Compound 55]  criterion not met
2  Cc1nn(C)cc1-c1ccc(OC2CC3(CCN(CC4CC5C=CC4C5)CC3)C2)nn1 (centres unmarked) [Compound 24]      criterion met
3  Cc1cccnc1CN1CCC2(CC1)CC(Nc1ccc(-c3cn(C)nc3C)nn1)C2 [Compound 7]  criterion not met
4  Cc1cnn(C)c1-c1ccc(NC2CC3(CCN(CC4CC5C=CC4C5)CC3)C2)nn1 (centres unmarked) [Compound 8]      criterion met
5  Cc1cnn(C)c1-c1ccc(OC2CC3(CCN(CCC(C)(C)C)CC3)C2)nn1 [Compound 14]      criterion met
6  Cc1nn(C)cc1-c1ccc(NCC2CC3(CCN(Cc4ccccc4)CC3)C2)nn1 [Compound 53]  criterion not met

###

target: Human M4 (Homo sapiens, UniProt P08173); assay: mAChR M4 cell-based functional assay (calcium flux, antagonist mode); conditions: M4/Gqi5/CHO-K1 cells; concentration-dependent decrease of the EC80 acetylcholine response
Sequence (P08173 whole entry): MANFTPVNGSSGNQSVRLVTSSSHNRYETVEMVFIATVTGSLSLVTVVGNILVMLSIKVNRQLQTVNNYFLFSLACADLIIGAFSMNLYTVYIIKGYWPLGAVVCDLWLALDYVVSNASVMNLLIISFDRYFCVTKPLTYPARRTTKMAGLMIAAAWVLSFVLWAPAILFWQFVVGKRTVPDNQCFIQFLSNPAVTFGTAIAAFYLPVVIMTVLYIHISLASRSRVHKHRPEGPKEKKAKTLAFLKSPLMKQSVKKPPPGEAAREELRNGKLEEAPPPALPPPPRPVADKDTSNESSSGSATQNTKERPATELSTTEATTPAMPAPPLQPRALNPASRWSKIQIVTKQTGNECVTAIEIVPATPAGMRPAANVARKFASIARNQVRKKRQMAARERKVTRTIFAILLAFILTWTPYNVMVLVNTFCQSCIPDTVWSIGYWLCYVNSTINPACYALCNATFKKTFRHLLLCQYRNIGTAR
The following compounds are listed with their measured IC50 values.
assay-readout: IC50 (nM)

> print(dat)
                                    compound  assay.readout  qualifier.sign  reported.measurement
 1  Cc1cnn(C)c1-c1ccc(NC2CC3(CCN(CC(C)C(C)(C)C)CC3)C2)nn1 (stereo not shown)           IC50               =                   220
 2  Cc1nn(C)cc1-c1ccc(NCC2CC3(CCN(CC4CCCOC4)CC3)C2)nn1 (stereo not shown)           IC50               >                 10000
 3  Cc1nn(C)cc1-c1ccc(NCC2CC3(CCN(CC4CCCCC4)CC3)C2)nn1           IC50               =                  1160
 4  Cc1nn(C)cc1-c1ccc(OC2CC3(CCN(CC4CCCOC4)CC3)C2)nn1 (stereo not shown)           IC50               =                  5810
 5  Fc1ccc(Cl)c(-c2ccc(OCC3CC4(CCN(CC5CC6C=CC5C6)CC4)C3)nn2)c1 (stereo not shown)           IC50               =                   250
 6  Fc1ccc(Cl)c(-c2ccc(NCC3CC4(CCN(CC5CCOCC5)CC4)C3)nn2)c1           IC50               =                   730
 7  Fc1ccc(Cl)c(-c2ccc(OCC3CC4(CCN(CC5CCCOC5)CC4)C3)nn2)c1 (stereo not shown)           IC50               =                  2130
 8  Fc1ccc(Cl)c(-c2ccc(NCC3CC4(CCN(CC5CCCCC5)CC4)C3)nn2)c1           IC50               =                  3140
 9  Fc1ccc(Cl)c(-c2ccc(OCC3CC4(CCN(Cc5ccccn5)CC4)C3)nn2)c1           IC50               =                  2740
10  Cc1cnn(C)c1-c1ccc(OC2CC3(CCN(CC4CCCCC4)CC3)C2)nn1           IC50               =                   850
